test: MRT (0 to infinity) in 12 hr starved C57 mouse at 30 mg/kg, po measured for 0.083 to 24 hrs post-dose by LC-MS-MS analysis; assay type: ADME, organism-based; details: in vivo, time 0.083-24 hrs
measured.quantity: MRT inf (h)
Provide the reading as a plain figure in h.

*Q* State, in one line, measured MRT inf of `COc1ccc([C@H]2CC(=O)c3cc(OC)cc(OC)c32)cc1`
*A* 12.5

----------
tested on: P-gp (human); experiment: Efflux ratio of apparent permeability in dog MDCK-MDR1 cells transfected with human P-gp; format: ADME, cell-based, Canis lupus familiaris
measured.quantity: efflux ratio
Keep the answer to the number alone.

*Q* State, in one line, measured efflux ratio of `COc1ccc([C@H]2CC(=O)c3cc(OC)cc(OC)c32)cc1`
*A* 0.33

----------
assay: Half life in 12 hr starved C57 mouse at 5 mg/kg, iv measured for 0.083 to 24 hrs post-dose by LC-MS-MS analysis; type: ADME, organism-based; details: in vivo, time 0.083-24 hrs
measured.quantity: half-life
# do not omit the unit; it follows the number

*Q* State, in one line, measured half-life of `COc1ccc([C@H]2CC(=O)c3cc(OC)cc(OC)c32)cc1`
*A* 9.29 h

----------
assay: AUC (0 to t) in 12 hr starved C57 mouse at 5 mg/kg, iv measured for 0.083 to 24 hrs post-dose by LC-MS-MS analysis; type: ADME, organism-based; design: time lower 0.083 hrs, dose 5 mg/kg, time upper 24 hrs, route iv; conditions: in vivo
measured.quantity: AUC(0-t) (ng·h/mL)
Provide the reading as a plain figure in ng·h/mL.

*Q* State, in one line, measured AUC(0-t) of `COc1ccc([C@H]2CC(=O)c3cc(OC)cc(OC)c32)cc1`
*A* 7250

----------
assay: Half life in 12 hr starved C57 mouse at 30 mg/kg, po measured for 0.083 to 24 hrs post-dose by LC-MS-MS analysis; type: ADME, organism-based; settings: in vivo, time 0.083-24 hrs
measured.quantity: half-life (h)
Provide the reading as a plain figure in h.

*Q* State, in one line, measured half-life of `COc1ccc([C@H]2CC(=O)c3cc(OC)cc(OC)c32)cc1`
*A* 8.67

----------
experiment: Bioavailability in 12 hr starved C57 mouse […] measured for 0.083 to 24 hrs post-dose by LC-MS-MS analysis; type: ADME, organism-based; conditions: in vivo, time 0.083-24 hrs
measured.quantity: bioavailability (%)
Provide the reading as a plain figure in %.

*Q* State, in one line, measured bioavailability of `COc1ccc([C@H]2CC(=O)c3cc(OC)cc(OC)c32)cc1`
*A* 33

----------
assay: Apparent volume of distribution in 12 hr starved C57 mouse at 5 mg/kg, iv measured for 0.083 to 24 hrs post-dose by LC-MS-MS analysis; assay type: ADME, organism-based; conditions: in vivo, time 0.083-24 hrs, read-out: Vz
measured.quantity: Vd
# do not omit the unit; it follows the number

*Q* State, in one line, measured Vd of `COc1ccc([C@H]2CC(=O)c3cc(OC)cc(OC)c32)cc1`
*A* 7.76 L/kg

----------
assay: Cmax in 12 hr starved C57 mouse at 30 mg/kg, po measured for 0.083 to 24 hrs post-dose by LC-MS-MS analysis; assay type: ADME, organism-based; parameters: dose 30 mg/kg, time 0.083-24 hrs, route po; settings: in vivo
measured.quantity: Cmax
# do not omit the unit; it follows the number

*Q* State, in one line, measured Cmax of `COc1ccc([C@H]2CC(=O)c3cc(OC)cc(OC)c32)cc1`
*A* 2290 ng/mL

Sourced from ChEMBL document CHEMBL5154881
